- target: hck (Homo sapiens, UniProt P08631)
- Sequence (P08631 262-515 limits assumed, species assumed): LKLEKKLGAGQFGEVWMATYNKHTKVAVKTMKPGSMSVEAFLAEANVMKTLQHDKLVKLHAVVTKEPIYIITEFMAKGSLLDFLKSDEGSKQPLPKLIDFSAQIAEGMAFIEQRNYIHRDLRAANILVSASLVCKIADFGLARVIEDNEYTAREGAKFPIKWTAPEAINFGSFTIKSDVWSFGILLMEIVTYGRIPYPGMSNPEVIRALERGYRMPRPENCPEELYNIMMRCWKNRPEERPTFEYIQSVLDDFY
- assay_notes: hck kinase assay (ELISA or Alphascreen)
- Type: biochemical
- test_context: read-out: hck inhibition of enzyme activity
- Experimental: Kinase assays were performed in a 96 well capture-based ELISA assay or in 384 well Optiplates (Packard) using an Alphascreen Protein Tyrosine Kinase kit. […] In the ELISA assay tyrosine phosphorylation was quantitated following transfer to an avidin coated ELISA plate using peroxidase-linked anti-phosphotyrosine antibody PY20. […] The ELISA plates were read on a BMG Fluorostar, the Alphascreen plates were read on a Packard Fusion Alpha. […]
The following compounds are shown together with reported inhibition at 10 µM values.

Sample answers from the record:
{"columns": ["chemical_smiles", "target", "observed_value"],
 "data": [
  ["Cc1ccccc1NC(=O)c1cncc(-c2ccc(O)cc2)c1", "hck (Homo sapiens, UniProt P08631)", "≥ 50%"],
  ["O=C(Nc1ccc(N2CCOCC2)cc1)c1cncc(-c2cccs2)c1", "hck (Homo sapiens, UniProt P08631)", "< 50%"],
  ["COc1ccc(CNC(=O)c2cncc(-c3cccc(OC)c3)c2)cc1", "hck (Homo sapiens, UniProt P08631)", "< 50%"],
  ["COc1ccc(NC(=O)c2cncc(-c3ccc(O)cc3)c2)c(OC)c1", "hck (Homo sapiens, UniProt P08631)", "< 50%"],
  ["COc1cc(-c2cncc(C(=O)Nc3cc(C)ccc3C)c2)ccc1O", "hck (Homo sapiens, UniProt P08631)", "≥ 50%"]
]}

Incoming: Report inhibition at 10 µM for "Cc1ccccc1NC(=O)c1cncc(-c2cccs2)c1" please.
Outgoing: ≥ 50%

Incoming: Okay, and "O=C(NCc1ccc(F)cc1)c1cncc(-c2ccncc2)c1" ?
Outgoing: < 50%

Incoming: Okay, and "O=C(NCc1cccc(F)c1)c1cncc(-c2cccs2)c1" ?
Outgoing: < 50%

The values you see were collected from patent US8030336B2.
